Quick reference: folding enthalpy of the listed items.
# test_protocol: folding enthalpy; higher = less favourable; fluorescence melt of hairpins on a sequencing array, two-state fit
# condition: sodium 0.088 M
measurement_type: folding enthalpy (kcal/mol)

sequence	measurement_type	reported_value
GATCTGCCTACAGATC ((((((....))))))	folding enthalpy	-41.8
GTCAGGGGAAACCCCAAC ((..(((....)))..))	folding enthalpy	-11.7
GATCCATTGTTGGATC ((((((....))))))	folding enthalpy	-44.2
GGGTGGCGAAAGCCTCCC (((.(((....))).)))	folding enthalpy	-28
GCGATCGAAAGATACCGC ((((((....)))..)))	folding enthalpy	-23.8
GCCTGGCGAAAGCAGGGC (((..((....))..)))	folding enthalpy	-26.7
GCCCTAGGAAACTAGGAC (.(((((....))))).)	folding enthalpy	-19.6
GCGCTGGCGAAAGCCCGC (((..(((....))))))	folding enthalpy	-17

----------
# test_protocol: melting temperature; fluorescence melt of hairpins on a sequencing array, two-state fit, raised by 9.35 °C to match UV melts
# condition: sodium 0.088 M
Quick reference: Tm of the listed items.

sequence	Tm [°C]
GTTACCGAAAGGTAAAC ((((((....))).)))	48
GTTACCCGAAAGGGAAAC (((.(((....))).)))	48.6
GTCGAAGGAAACTCCGAC ((((.((....)).))))	42.1
GTGACAGGAAACTATCAC ((((.((....)).))))	33.2
GCGATGCGTCGC ((((....))))	64.5
GCATACGAAAGTAAATGC ((((((....)))..)))	42.6
GCATGGCGAAAGCGCTGC (((..((....))..)))	51.6
GGGATCGAAAGATAGCCC ((((((....)))..)))	32.4
GTAAACGAAAGTTTATAC ((((((....)))..)))	37.1
GTCACTCGAAAGAGGAC (((.(((....))))))	45.8
GTAGACGAAAGTCCATAC ((((((....)))..)))	26
GATCACGGCTGTGATC ((((((....))))))	62.3
GACCGAGAAATCGGTC ((((((....))))))	59.6
GGTTTACGAAAGTAGACC (((.(((....))).)))	51
GATCTCATCAGAGATC ((((((....))))))	55.6
GCAAACGAAAGTTTTTGC ((((((....)))..)))	35.2
ACTCGGAAACGAGT (((((....)))))	52.3
GTCTTACGAAAGTAGAC (((.(((....))))))	43.4
GACCGCGAAAGCGCGTC ((((((....))).)))	63.1
GGGCTCGGAAACGGGTCC ((.(.((....)).).))	48.6
GGGTCTGGAAACAGGCCC (((.(((....))).)))	59.8
GTGTAAGGAAACTTGCAC (((.(((....))).)))	45.1
GGCCGACGAAAGTCGCC (((.(((....))))))	60.2
GTTTCTCGAAAGAGCAAC (((.(((....))).)))	36.4
GTCTTTACGAAAGTAGAC (((..(((....))))))	31.8
GTAGACGGAAACGTTTAC (((.(((....))).)))	41.5

----------
# test_protocol: folding enthalpy; higher = less favourable; fluorescence melt of hairpins on a sequencing array, two-state fit
# condition: sodium 0.088 M
Quick reference: folding enthalpy of the listed items.

sequence	folding enthalpy / kcal/mol
GGTCCGGGAAACCGAACC (((.(((....))).)))	-29.1
GATCGCTATGGCGATC ((((((....))))))	-30.2
GACAACGGAAACGTCGTC (((.(((....))).)))	-29.5
GTCAAAACGAAAGTTGAC (((..(((....))))))	-24.4
GGCATTCGAAAGAAGGCC (((.(((....))).)))	-41.7
GGTTGCGCGAAAGCGACC (((..(((....))))))	-18
GATTGGGGAAACCCAATC (((((((....)))))))	-41
GGGACCGAAAGGTACCC ((((((....))).)))	-18.9
GCCTGAGGAAACTCGGGC (((.(((....))).)))	-40.8
GGCGTAGGAAACTATGCC (((.(((....))).)))	-41.8
GTGATGGGAAACCATTGC (..((((....))))..)	-23.6
GATCAGTATCCTGATC ((((((....))))))	-33.3
GCTGTTGGAAACAGCAGC ((((.((....)).))))	-12.4
GAATCGGGAAACCGGTTC (((.(((....))).)))	-35.8
GCTAGGGGAAACCCTAAC (.(((((....))))).)	-13.4
GCTGGGCGAAAGCACTGC ((.(.((....)).).))	-29.4
GATCCAAAAATGGATC ((((((....))))))	-26.4
GGATGTGGAAACACATTC (.(((((....))))).)	-25.7
GCAAGGCGAAAGCCTGGC ((.((((....)))).))	-23.1
GTCACCGAAAGGTCAGAC ((((((....)))..)))	-14.5
GGAGGACGAAAGTCTCC (((.(((....))))))	-22.6
CCTTTGAAAAAAGG (((((....)))))	-12.2
GCCCTCGAAAGAGCCGGC ((((((....)))..)))	-18.4
GATCACGACGTGATC ((((((...))))))	-30.6
GCCCTCGGAAACGGGGGC ((((.((....)).))))	-32.7
GGGTACGAAAGTACGCCC ((((((....)))..)))	-13.3
GTACGCGGAAACGTGTGC (.((.((....)).)).)	-20.8
GTGTGACGAAAGTCCCAC (((.(((....))).)))	-25
GATCATCATTATGATC ((((((....))))))	-34.6
GAGTGCCGAAAGGCCCTC (((.(((....))).)))	-18.3
GATCCACCCTGGATC ((((((...))))))	-33.8
GGCCGTCGAAAGACAGCC (((.(((....))).)))	-35.1
GCAGTGCGAAAGCGGTGC (((..((....))..)))	-39.5
GCTCTCGGAAACGAAAGC (((.(((....))).)))	-28.5
GGGTATCGAAAGATTCCC (((.(((....))).)))	-30.6

----------
# test_protocol: folding enthalpy; higher = less favourable; fluorescence melt of hairpins on a sequencing array, two-state fit
# condition: sodium 0.088 M
Decide by folding enthalpy: equal to or exceeding -30 kcal/mol means fulfilled, less means not fulfilled.

sequence	category
GGTGTTGGAAACAACATC (.(((((....))))).)	fulfilled
GATCACTACAGTGATC ((((((....))))))	not fulfilled
GATCCGTGATCGGATC ((((((....))))))	not fulfilled
GTTCGCGAAAGCGTAAAC ((((((....)))..)))	fulfilled
GTGAAGCGAAAGCTCAC (((.(((....))))))	fulfilled

----------
# test_protocol: melting temperature; fluorescence melt of hairpins on a sequencing array, two-state fit, raised by 9.35 °C to match UV melts
# condition: sodium 0.088 M

sequence	Tm, °C
GCGAACCCTCGC ((((....))))	47
GGAGCCGAAAGGCAATCC ((((((....)))..)))	38
GCAAGGCGAAAGCTGTGC (((..((....))..)))	52.8
GTAGTATCGAAAGATTAC (((..(((....))))))	26.1
GCTAAAGAAATTTAGC ((((((....))))))	41.7
GCGACCGAAAGGTAGCGC ((((((....)))..)))	68.5
GTAGTCGGAAACGACTAC (((((((....)))))))	64.8
CGCTCGGAAACGACAGCG ((((((....)))..)))	45
GCGTAGGGAAACTTACGC (((((.(....).)))))	50.4
GCCTTATCGAAAGATGGC (((..(((....))))))	42.6
GCCCCGCGAAAGCGTTGC ((..(((....)))..))	33.5
GATCCGATCGCGGATC ((((((....))))))	56
GTAAACGAAAGTTCTTAC ((((((....)))..)))	24.7
GGGTAGCGAAAGCTCCCC (((.(((....))).)))	55.1
GAGCCGGGAAACCGGTTC ((.((((....)))).))	55
GCAAAGCGAAAGCCATGC (((..((....))..)))	32.2
GGCAACGAAAGTTACGCC ((((((....)))..)))	44.4
GTTAAAGGAAACTTTGAC ((.((((....)))).))	33.2
GCAAGTCGAAAGACATGC (((.(((....))).)))	52.7
GGGTACGAAAGTAGCCC ((((((....))).)))	56.2
GATACAGGAAACTGTATC (((((((....)))))))	54
GCCATCGAAAGATTGGGC ((((((....)))..)))	44.1
GCCACTTCGAAAGAAGGC (((..(((....))))))	35.5

All figures here come from the array DNA melting data of Ke et al. (doi:10.1101/2024.01.08.574731).
